This collection of values is drawn from patent US11912682B2.

# measurementTarget: UniProt:Q96SW2
# runDescription: fluorescence polarization (FP) assay, cereblon binding
# reportedConditions: read-out: rFP IC50
# Source text: Compound activity was monitored in a fluorescence polarization (FP) homogeneous assay using 1-[5-({2-[2-(2-{[2-(2,6-dioxopiperidin-3-yl)-1,3-dioxo-2,3-dihydro-1H-isoindol-4-yl]oxy}acetamido)ethoxy]ethyl}carbamoyl)pentyl]-3,3-dimethyl-2-[(1E,3E)-5-[(2E)-1,3,3-trimethyl-5-sulfo-2,3-dihydro-1H-indol-2-ylidene]penta-1,3-dien-1-yl]-3H-indol-1-ium-5-sulfonate as a fluorescent probe. Unless otherwise stated, all reagents were purchased from Sigma Aldrich. […]
Record form. Attribute: IC50. Fill in for each entry.

Cc1c(F)cc(NC(=O)OCc2ccc3c(c2)C(=O)N(C2CCC(=O)NC2=O)C3)cc1Cl (centres unmarked) = > 1700 nM
O=C1CCC(N2Cc3ccc(COC(=O)Nc4ccc(-c5ccccc5)c(F)c4)cc3C2=O)C(=O)N1 (centres unmarked) = > 1700 nM

Give IC50 for each of the items listed below.
1. O=C1CCC(N2Cc3ccc(COC(=O)Nc4ccc(OC(F)(F)F)cc4)cc3C2=O)C(=O)N1 (centres unmarked)
2. CC(C)CCNC(=O)OCc1ccc2c(c1)C(=O)N(C1CCC(=O)NC1=O)C2 (centres unmarked)
3. O=C1CCC(N2Cc3ccc(COC(=O)Nc4ccc(N5CCCCC5)nn4)cc3C2=O)C(=O)N1 (centres unmarked)
4. Cc1cc(NC(=O)OCc2ccc3c(c2)C(=O)N(C2CCC(=O)NC2=O)C3)ccc1-c1ccccc1 (centres unmarked)

["> 1700 nM", "> 1700 nM", "< 500 nM", "> 1700 nM"]

Count: 2. Required value per item: IC50.
1. O=C1CCC(N2Cc3ccc(COC(=O)Nc4ccc(F)c(OC(F)F)c4)cc3C2=O)C(=O)N1 (centres unmarked)
2. O=C1CCC(N2Cc3ccc(COC(=O)Nc4ccnc(-c5ccccc5)c4)cc3C2=O)C(=O)N1 (centres unmarked)

> 1700 nM
< 500 nM

====

# measurementTarget: CK1alpha (Homo sapiens (Human), UniProt P48729)
# Sequence (P48729 whole entry, looked up): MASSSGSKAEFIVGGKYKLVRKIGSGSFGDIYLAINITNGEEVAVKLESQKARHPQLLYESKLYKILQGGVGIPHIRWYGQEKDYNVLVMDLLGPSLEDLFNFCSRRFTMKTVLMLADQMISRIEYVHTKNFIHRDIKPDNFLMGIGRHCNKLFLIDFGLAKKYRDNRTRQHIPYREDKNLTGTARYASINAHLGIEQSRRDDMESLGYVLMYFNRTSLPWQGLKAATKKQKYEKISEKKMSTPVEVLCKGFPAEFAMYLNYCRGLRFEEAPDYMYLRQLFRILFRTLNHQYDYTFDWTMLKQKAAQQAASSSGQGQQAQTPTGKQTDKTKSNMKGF
# runDescription: selectivity by Western blot in MM1S cells, CK1alpha
# Assay type: cell-based
# Set-up: key: A represents a no degradation observed at 30 μM; B represents trace degradation at 30 μM (below 20%); C represents weak degradation at 30 μM (below 50%); D represents degradation at 30 μM (>90%); E represents degradation at 3 μM (>90%); F represents degradation at 0.3 μM (>90%)
# reportedConditions: MM1S cells, 6 hours, 0.3, 3 and 30 μM
endpointName: CK1alpha degradation

Cc1ncc(NC(=O)OCc2ccc3c(c2)C(=O)N(C2CCC(=O)NC2=O)C3)cc1Cl (stereo not shown) = A

====

For each record, write down the corresponding IC50.
# measurementTarget: CRBN-DDB1 (Homo sapiens (Human), UniProt Q96SW2)
# Sequence (Q96SW2 whole entry): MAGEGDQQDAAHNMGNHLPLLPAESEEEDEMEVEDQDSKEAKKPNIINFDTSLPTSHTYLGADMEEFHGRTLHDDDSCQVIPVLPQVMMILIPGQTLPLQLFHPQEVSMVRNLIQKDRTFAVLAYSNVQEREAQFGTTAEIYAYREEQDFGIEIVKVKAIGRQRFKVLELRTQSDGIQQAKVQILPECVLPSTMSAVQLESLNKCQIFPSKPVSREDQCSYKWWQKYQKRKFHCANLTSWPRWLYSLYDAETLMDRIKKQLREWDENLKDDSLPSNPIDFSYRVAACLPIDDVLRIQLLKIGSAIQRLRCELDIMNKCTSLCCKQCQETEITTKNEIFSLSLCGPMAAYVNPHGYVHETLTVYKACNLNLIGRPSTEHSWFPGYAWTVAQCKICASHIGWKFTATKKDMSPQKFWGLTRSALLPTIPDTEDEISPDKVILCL
# Sequence (Q16531 whole entry partner): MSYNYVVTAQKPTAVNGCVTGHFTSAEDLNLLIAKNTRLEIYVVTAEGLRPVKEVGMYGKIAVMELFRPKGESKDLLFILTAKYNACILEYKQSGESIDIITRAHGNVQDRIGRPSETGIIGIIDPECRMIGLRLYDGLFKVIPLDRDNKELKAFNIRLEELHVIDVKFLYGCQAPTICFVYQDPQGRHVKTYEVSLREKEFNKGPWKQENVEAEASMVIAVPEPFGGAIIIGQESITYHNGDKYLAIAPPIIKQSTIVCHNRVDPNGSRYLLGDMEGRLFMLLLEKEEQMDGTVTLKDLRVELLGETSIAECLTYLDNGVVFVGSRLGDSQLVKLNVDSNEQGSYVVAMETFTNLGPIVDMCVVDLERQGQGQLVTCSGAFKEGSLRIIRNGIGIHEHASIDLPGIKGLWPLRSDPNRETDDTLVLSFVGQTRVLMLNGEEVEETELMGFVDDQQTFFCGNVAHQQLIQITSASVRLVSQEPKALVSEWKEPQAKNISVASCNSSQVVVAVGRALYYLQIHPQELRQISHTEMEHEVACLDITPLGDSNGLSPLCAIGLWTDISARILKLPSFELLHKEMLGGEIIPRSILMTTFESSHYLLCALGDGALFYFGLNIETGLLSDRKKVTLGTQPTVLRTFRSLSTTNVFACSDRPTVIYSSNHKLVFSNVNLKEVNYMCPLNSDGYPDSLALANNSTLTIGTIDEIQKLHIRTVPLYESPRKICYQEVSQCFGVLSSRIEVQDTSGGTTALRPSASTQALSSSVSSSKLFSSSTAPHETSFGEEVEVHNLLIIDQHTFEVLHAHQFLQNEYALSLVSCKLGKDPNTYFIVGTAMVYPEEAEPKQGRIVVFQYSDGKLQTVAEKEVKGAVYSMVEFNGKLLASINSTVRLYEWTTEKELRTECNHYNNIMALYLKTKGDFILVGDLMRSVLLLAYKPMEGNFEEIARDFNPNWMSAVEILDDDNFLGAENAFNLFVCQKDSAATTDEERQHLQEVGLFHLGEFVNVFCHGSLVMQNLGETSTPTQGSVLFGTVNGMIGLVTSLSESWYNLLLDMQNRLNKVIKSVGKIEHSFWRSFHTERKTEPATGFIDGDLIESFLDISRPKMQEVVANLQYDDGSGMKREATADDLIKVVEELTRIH
# runDescription: Homogenous Time-Resolved Fluorescence (HTRF) binding assay to CRBN
# reportedConditions: CRBN-DDB1, HTRF; read-out: HTRF Class (HTRF IC50, Cereblon binding)

Cc1ccc(NC(=O)OCc2ccc3c(c2)C(=O)N([C@H]2CCC(=O)NC2=O)C3)cc1Cl (single isomer, unassigned) [Compound 175] = > 1 µM

Consider the record given below.
Any idea what IC50 was measured for Cc1ccc(NC(=O)OCc2ccc3c(c2)C(=O)N([C@@H]2CCC(=O)NC2=O)C3)cc1Cl (single isomer, unassigned) [Compound 176] ?
< 0.1 µM

====

# measurementTarget: ZFP91 (Homo sapiens (Human), UniProt Q96JP5)
# Sequence (Q96JP5 whole entry, looked up): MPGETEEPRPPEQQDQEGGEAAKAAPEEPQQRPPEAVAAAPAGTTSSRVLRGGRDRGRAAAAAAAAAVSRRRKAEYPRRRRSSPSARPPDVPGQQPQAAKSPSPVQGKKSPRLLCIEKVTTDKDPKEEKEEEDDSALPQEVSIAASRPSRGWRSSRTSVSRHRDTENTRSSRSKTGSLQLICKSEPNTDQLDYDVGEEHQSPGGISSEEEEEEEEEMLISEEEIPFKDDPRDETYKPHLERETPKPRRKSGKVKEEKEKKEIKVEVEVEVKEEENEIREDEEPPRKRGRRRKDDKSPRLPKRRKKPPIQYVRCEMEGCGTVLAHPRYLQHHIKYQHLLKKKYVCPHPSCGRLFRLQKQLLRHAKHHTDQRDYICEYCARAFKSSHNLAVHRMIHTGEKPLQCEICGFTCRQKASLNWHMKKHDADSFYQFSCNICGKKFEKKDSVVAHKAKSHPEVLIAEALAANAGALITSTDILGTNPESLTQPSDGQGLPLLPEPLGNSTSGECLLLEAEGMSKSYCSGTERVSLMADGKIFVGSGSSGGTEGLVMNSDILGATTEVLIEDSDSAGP
# runDescription: selectivity by Western blot in MM1S cells, ZFP91
# Type: cell-based
# Design: key: A represents a no degradation observed at 30 μM; B represents trace degradation at 30 μM (below 20%); C represents weak degradation at 30 μM (below 50%); D represents degradation at 30 μM (>90%); E represents degradation at 3 μM (>90%); F represents degradation at 0.3 μM (>90%)
# reportedConditions: 6 hours, 0.3, 3 and 30 μM
endpointName: ZFP91 degradation

COc1cc(C)c(Cl)cc1NC(=O)OCc1ccc2c(c1)C(=O)N(C1CCC(=O)NC1=O)C2 (stereo not shown) [Compound 1] = A

====

What DC50 was measured for each of the following?
# measurementTarget: GSPT1 (Homo sapiens (Human), UniProt P15170+Q96SW2)
# Sequence (P15170 whole entry): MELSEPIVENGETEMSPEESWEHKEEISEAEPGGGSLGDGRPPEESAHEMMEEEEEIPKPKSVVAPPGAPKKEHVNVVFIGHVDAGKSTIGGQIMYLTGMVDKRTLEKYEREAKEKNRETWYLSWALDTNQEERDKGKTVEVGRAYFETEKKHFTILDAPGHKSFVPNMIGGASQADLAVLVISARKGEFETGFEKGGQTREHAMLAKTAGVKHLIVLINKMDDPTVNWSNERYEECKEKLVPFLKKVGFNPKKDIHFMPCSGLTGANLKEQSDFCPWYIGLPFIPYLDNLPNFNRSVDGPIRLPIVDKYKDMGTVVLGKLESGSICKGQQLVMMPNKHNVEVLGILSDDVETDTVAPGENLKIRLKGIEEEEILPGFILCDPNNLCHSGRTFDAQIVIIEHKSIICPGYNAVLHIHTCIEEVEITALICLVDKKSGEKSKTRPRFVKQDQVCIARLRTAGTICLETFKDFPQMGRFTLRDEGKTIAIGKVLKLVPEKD
# Sequence (Q96SW2 whole entry): as the sequence (Q96SW2 whole entry) above
# Sequence (Q16531 2-1140 partner): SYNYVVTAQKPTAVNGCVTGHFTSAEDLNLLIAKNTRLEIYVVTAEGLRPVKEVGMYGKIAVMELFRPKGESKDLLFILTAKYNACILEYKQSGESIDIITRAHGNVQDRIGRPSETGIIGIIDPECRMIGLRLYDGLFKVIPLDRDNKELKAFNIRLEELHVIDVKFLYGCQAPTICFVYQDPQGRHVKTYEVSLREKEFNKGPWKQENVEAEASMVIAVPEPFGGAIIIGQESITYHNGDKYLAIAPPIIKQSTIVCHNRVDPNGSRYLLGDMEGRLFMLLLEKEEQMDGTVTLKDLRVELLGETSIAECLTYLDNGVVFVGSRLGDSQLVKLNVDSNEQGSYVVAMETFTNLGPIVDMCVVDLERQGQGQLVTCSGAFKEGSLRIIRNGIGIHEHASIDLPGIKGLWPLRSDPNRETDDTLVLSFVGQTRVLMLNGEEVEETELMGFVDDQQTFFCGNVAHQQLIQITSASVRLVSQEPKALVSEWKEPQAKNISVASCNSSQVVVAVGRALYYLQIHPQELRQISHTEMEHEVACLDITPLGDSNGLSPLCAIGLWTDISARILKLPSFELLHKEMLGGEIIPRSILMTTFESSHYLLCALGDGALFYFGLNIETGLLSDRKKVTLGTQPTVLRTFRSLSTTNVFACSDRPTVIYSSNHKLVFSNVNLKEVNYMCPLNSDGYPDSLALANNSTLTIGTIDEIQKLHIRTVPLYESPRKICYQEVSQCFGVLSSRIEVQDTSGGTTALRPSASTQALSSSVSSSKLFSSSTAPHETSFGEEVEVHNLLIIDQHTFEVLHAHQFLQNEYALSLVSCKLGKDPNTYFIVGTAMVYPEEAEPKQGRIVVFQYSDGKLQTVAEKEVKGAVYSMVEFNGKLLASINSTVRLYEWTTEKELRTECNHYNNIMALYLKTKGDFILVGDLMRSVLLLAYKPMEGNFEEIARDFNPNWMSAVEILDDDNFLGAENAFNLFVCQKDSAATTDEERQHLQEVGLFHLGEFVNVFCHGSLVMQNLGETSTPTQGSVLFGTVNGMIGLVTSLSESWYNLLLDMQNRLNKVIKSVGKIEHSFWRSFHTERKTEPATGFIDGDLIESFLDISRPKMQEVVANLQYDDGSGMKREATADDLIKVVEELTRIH
# runDescription: immunofluorescence assay for GSPT1 degradation in CAL-51 cells (Example 4)
# Assay type: cell-based
# reportedConditions: 6 hours, read-out: Activity for GSPT1 degradation, Code (DC50)

O=C1CCC(N2Cc3ccc(COC(=O)Nc4ccc(F)c(Cl)c4)cc3C2=O)C(=O)N1 (centres unmarked) [Compound 9] = 0.03 to 0.3 µM
CC(C)(C)c1ccc(NC(=O)OCc2ccc3c(c2)C(=O)N(C2CCC(=O)NC2=O)C3)cn1 (centres unmarked) [Compound 43] = < 0.03 µM
CCc1cc(NC(=O)OCc2ccc3c(c2)C(=O)N(C2CCC(=O)NC2=O)C3)ccn1 (centres unmarked) [Compound 63] = > 0.3 µM

Provide the reported DC50 of each entry below, same order.
1. COc1ccccc1CNC(=O)OCc1ccc2c(c1)C(=O)N(C1CCC(=O)NC1=O)C2 (centres unmarked) [Compound 97]
2. O=C1CCC(N2Cc3ccc(COC(=O)Nc4ccc5c(c4)CCC5)cc3C2=O)C(=O)N1 (centres unmarked) [Compound 56]
3. O=C1CCC(N2Cc3ccc(COC(=O)Nc4ccc5c(c4)OCCC5)cc3C2=O)C(=O)N1 (centres unmarked) [Compound 92]
4. O=C1CCC(N2Cc3ccc(COC(=O)Nc4cccc(OC5CC5)c4)cc3C2=O)C(=O)N1 (centres unmarked) [Compound 93]
5. O=C1CCC(N2Cc3ccc(COC(=O)Nc4ccc(N5CCCC(F)(F)C5)nc4)cc3C2=O)C(=O)N1 (centres unmarked) [Compound 73]

1. > 0.3 µM
2. 0.03 to 0.3 µM
3. < 0.03 µM
4. 0.03 to 0.3 µM
5. 0.03 to 0.3 µM

====

# measurementTarget: GSPT1 (Homo sapiens (Human), UniProt P15170+Q96SW2)
# runDescription: immunofluorescence assay for GSPT1 degradation in CAL-51 cells (Example 4)
# Type: cell-based
# reportedConditions: 6 hours, read-out: Activity for GSPT1 degradation, Code (DC50)
Provide the reported DC50 of each item.

Example entries and their recorded answers appear below.
Cc1cc(NC(=O)OCc2ccc3c(c2)C(=O)N(C2CCC(=O)NC2=O)C3)cc(C(C)(C)C)n1 (stereo not shown) [Compound 118] = < 30 nM
O=C1CCC(N2Cc3ccc(COC(=O)Nc4ccc(C5CCC5)nc4)cc3C2=O)C(=O)N1 (stereo not shown) [Compound 105] = 30 to 300 nM
CC(C)(C)c1ccc(NC(=O)OCc2ccc3c(c2)C(=O)N(C2CCC(=O)NC2=O)C3)cc1 (stereo not shown) [Compound 47] = < 30 nM
O=C1CCC(N2Cc3ccc(COC(=O)Nc4cc(OC(F)(F)F)ccn4)cc3C2=O)C(=O)N1 (stereo not shown) [Compound 59] = 30 to 300 nM
COc1ccccc1-c1ccc(NC(=O)OCc2ccc3c(c2)C(=O)N(C2CCC(=O)NC2=O)C3)cn1 (stereo not shown) [Compound 87] = < 30 nM
O=C1CCC(N2Cc3ccc(COC(=O)Nc4cc(F)cc(Cl)c4)cc3C2=O)C(=O)N1 (stereo not shown) [Compound 12] = 30 to 300 nM
CN1CCN(c2ccc(NC(=O)OCc3ccc4c(c3)C(=O)N(C3CCC(=O)NC3=O)C4)cn2)CC1 (stereo not shown) [Compound 82] = > 300 nM
O=C1CCC(N2Cc3ccc(COC(=O)Nc4ccc(-c5ccccc5F)nc4)cc3C2=O)C(=O)N1 (stereo not shown) [Compound 84] = < 30 nM
O=C1CCC(N2Cc3ccc(COC(=O)Nc4ccc5c(c4)CCCO5)cc3C2=O)C(=O)N1 (stereo not shown) [Compound 67] = 30 to 300 nM
CN1CCC(COc2cc(Cl)cc(NC(=O)OCc3ccc4c(c3)C(=O)N(C3CCC(=O)NC3=O)C4)c2)C1 (stereo not shown) [Compound 40] = 30 to 300 nM

Please give DC50 for each item listed below.
1. O=C1CCC(N2Cc3ccc(COC(=O)Nc4ccc5c(c4)OC(F)(F)O5)cc3C2=O)C(=O)N1 (stereo not shown) [Compound 79]
2. CC(C)CCNC(=O)OCc1ccc2c(c1)C(=O)N(C1CCC(=O)NC1=O)C2 (stereo not shown) [Compound 27]
3. Cc1cc(NC(=O)OCc2ccc3c(c2)C(=O)N(C2CCC(=O)NC2=O)C3)ccc1-c1ccccc1 (stereo not shown) [Compound 137]
4. CN1CCC(Oc2cc(Cl)cc(NC(=O)OCc3ccc4c(c3)C(=O)N(C3CCC(=O)NC3=O)C4)c2)C1 (stereo not shown) [Compound 46]
5. O=C1CCC(N2Cc3ccc(COC(=O)Nc4ccc(N5CCCC5)nc4)cc3C2=O)C(=O)N1 (stereo not shown) [Compound 60]
6. CCc1cc(NC(=O)OCc2ccc3c(c2)C(=O)N(C2CCC(=O)NC2=O)C3)cnc1C (stereo not shown) [Compound 55]
7. O=C1CCC(N2Cc3ccc(COC(=O)NC4CCCC4)cc3C2=O)C(=O)N1 (stereo not shown) [Compound 29]
8. Cc1ccc(NC(=O)OCc2ccc3c(c2)C(=O)N(C2CCC(=O)NC2=O)C3)cc1C (stereo not shown) [Compound 129]

["< 30 nM", "> 300 nM", "< 30 nM", "< 30 nM", "30 to 300 nM", "< 30 nM", "> 300 nM", "30 to 300 nM"]

Value sought for every listed compound: DC50.
1. CCOc1cc(NC(=O)OCc2ccc3c(c2)C(=O)N(C2CCC(=O)NC2=O)C3)ccc1C (stereo not shown) [Compound 33]
2. O=C1CCC(N2Cc3ccc(COC(=O)Nc4ccc(C5CCC5)cc4)cc3C2=O)C(=O)N1 (stereo not shown) [Compound 104]

["30 to 300 nM", "30 to 300 nM"]

For each of the items listed, what is its DC50?
1. COc1ccc(Cl)cc1NC(=O)OCc1ccc2c(c1)C(=O)N(C1CCC(=O)NC1=O)C2 (stereo not shown) [Compound 14]
2. O=C1CCC(N2Cc3ccc(COC(=O)Nc4cc(F)cc(OC(F)(F)F)c4)cc3C2=O)C(=O)N1 (stereo not shown) [Compound 57]
3. Cc1c(F)cc(NC(=O)OCc2ccc3c(c2)C(=O)N(C2CCC(=O)NC2=O)C3)cc1F (stereo not shown) [Compound 127]
4. O=C1CCC(N2Cc3ccc(COC(=O)Nc4cnc(-c5ccccc5)c(F)c4)cc3C2=O)C(=O)N1 (stereo not shown) [Compound 85]

1: > 300 nM; 2: < 30 nM; 3: 30 to 300 nM; 4: < 30 nM
